system: SGC-7901; experiment: Cytotoxicity in human SGC7901 cells assessed as reduction in cell viability incubated for 48 hrs by MTT assay; assay type: functional, cell-based; conditions: SGC-7901, 48 h
pIC50: −log10 of the molar value.
Classification field: class 1 = pIC50 at or over 5; class 0 = pIC50 under 5.

Answered examples (3):
[
  {
    "Compound": "C[C@@H]1CC[C@]2(C(=O)OCC(=O)N/N=C/c3ccc(Cl)cc3)CC[C@]3(C)C(=CC(=O)[C@@H]4[C@@]5(C)CC[C@H](O)[C@](C)(CO)[C@@H]5CC[C@]43C)[C@@H]2[C@]1(C)O",
    "Classification": "class 0"
  },
  {
    "Compound": "CC1=C(O)C(=O)C=C2C1=CC=C1[C@@]2(C)CC[C@@]2(C)[C@@H]3C[C@](C)(C(=O)NCC(C)O)CC[C@]3(C)CC[C@]12C (stereo partly specified)",
    "Classification": "class 1"
  },
  {
    "Compound": "C[C@@H]1CC[C@]2(C(=O)O)CC[C@]3(C)C(=CC(=O)[C@@H]4[C@@]5(C)CC[C@H](O)[C@](C)(CO)[C@@H]5CC[C@]43C)[C@@H]2[C@]1(C)O",
    "Classification": "class 0"
  }
]

Query string: Could you verify whether the entry CC1=C(O)C(=O)C=C2C1=CC=C1[C@@]2(C)CC[C@@]2(C)[C@@H]3C[C@](C)(C(=O)NCCO)CC[C@]3(C)CC[C@]12C shows pIC50 of no less than 5?
Result string: class 1

Query string: Does pIC50 meet or surpass 5 for C[C@@H]1CC[C@]2(C(=O)OCC(=O)N/N=C/c3ccc([N+](=O)[O-])cc3)CC[C@]3(C)C(=CC(=O)[C@@H]4[C@@]5(C)CC[C@H](O)[C@](C)(CO)[C@@H]5CC[C@]43C)[C@@H]2[C@]1(C)O ?
Result string: class 0

* * *

system: T-24; test: Cytotoxicity in human T24 cells assessed as reduction in cell viability incubated for 48 hrs by MTT assay; assay type: functional, cell-based; conditions: T-24, 48 h
IC50 less than 40 µM is T; IC50 greater than or equal to 40 µM is F.

Some entries whose results are on file:
[
  {
    "Compound": "CCOP(=O)(OCC)C(NC(=O)[C@]12CC[C@@H](C)[C@H](C)[C@H]1C1=CC[C@@H]3[C@@]4(C)C[C@@H](OC(C)=O)[C@H](OC(C)=O)[C@@](C)(COC(C)=O)[C@@H]4CC[C@@]3(C)[C@]1(C)CC2)c1ccccc1Cl (stereo partly specified)",
    "Classification": "T"
  },
  {
    "Compound": "CCOP(=O)(OCC)C(NC(=O)[C@]12CC[C@@H](C)[C@H](C)[C@H]1C1=CC[C@@H]3[C@@]4(C)C[C@@H](OC(C)=O)[C@H](OC(C)=O)[C@@](C)(COC(C)=O)[C@@H]4CC[C@@]3(C)[C@]1(C)CC2)c1ccc2ccccc2c1 (stereo partly specified)",
    "Classification": "F"
  },
  {
    "Compound": "CCOP(=O)(OCC)C(NC(=O)[C@]12CC[C@@H](C)[C@H](C)[C@H]1C1=CC[C@@H]3[C@@]4(C)C[C@@H](OC(C)=O)[C@H](OC(C)=O)[C@@](C)(COC(C)=O)[C@@H]4CC[C@@]3(C)[C@]1(C)CC2)c1ccc(Cl)cc1 (stereo partly specified)",
    "Classification": "T"
  }
]

Query string: # strict comparison: is reported IC50 < 40 µM? input = C[C@H]1[C@H](C)CC[C@]2(C(=O)O)CC[C@]3(C)C(=CC[C@@H]4[C@@]5(C)C[C@@H](O)[C@H](O)[C@@](C)(CO)[C@@H]5CC[C@]43C)[C@H]12
Result string: T

Query string: Determine whether this compound shows IC50 lower than 40 µM (ties excluded): CCOP(=O)(OCC)C(NC(=O)[C@]12CC[C@@H](C)[C@H](C)[C@H]1C1=CC[C@@H]3[C@@]4(C)C[C@@H](OC(C)=O)[C@H](OC(C)=O)[C@@](C)(COC(C)=O)[C@@H]4CC[C@@]3(C)[C@]1(C)CC2)c1cccc2ccccc12 (stereo partly specified)
Result string: F

Measured values drawn from ChEMBL document CHEMBL4270495 for this set.
